# credit: PubChem BioAssay AID623901

Assay: miR-122 suppressors via Renilla sensor increase, primary screen, cell-based, Huh7 psiCHECK-miR122, Renilla luciferase, single point (AID 623901);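 note: 0% = median of neutral control wells and 100% = median of positive control wells; higher luciferase signal means stronger suppression of miR-122 activity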
Conditions: 48 h, at 12.5 µM, active compounds read high
In all, about 340,000 compounds went through this assay and about 470 (0.14%) were called active. The full list was thinned out, with actives kept by preference.
Below is a list of entries, each paired with its recorded activation value.
Number in %, nothing else.

Use these answered entries as a reference point.
C[C@@H]1CN([C@@H](C)CO)C(=O)c2cc(-c3ccc(F)cc3)cnc2O[C@@H]1CN(C)Cc1ccc(C(=O)O)cc1 :: 1.12
CCCNC(=O)N(C)C[C@@H]1Oc2ncc(C#CC(C)C)cc2C(=O)N([C@H](C)CO)C[C@H]1C :: 10.4
CCC(=O)N1C[C@@H](C)[C@@H](OC)CN(C)C(=O)c2ccc(NC(=O)C3CCCCC3)cc2OC[C@@H]1C :: 0.432
COc1ccc(NS(=O)(=O)c2ccc(NC(=O)C(C)(C(F)(F)F)C(F)(F)F)cc2)nn1 :: 35.7
CSc1nc(-c2ccccc2)nc(C(Cl)Cl)n1 :: 42

Data point: CCCC#Cc1ccc2c(c1)O[C@@H](CN(C)C(=O)CC)[C@H](C)CN([C@H](C)CO)S2(=O)=O ; activation = -21.9

Data point: C[C@H](CO)N1C[C@H](C)[C@H](CN(C)C(=O)Nc2cccc3ccccc23)Oc2ncc(C#Cc3ccccc3)cc2C1=O ; activation = 8.08

Data point: O=C(Nc1cc(S(=O)(=O)Nc2ccc(Cl)cc2)ccc1O)c1ccc(F)cc1F ; activation = -118

Data point: CCCN(C)C[C@H]1Oc2ncc(-c3ccccc3OC)cc2C(=O)N([C@H](C)CO)C[C@H]1C ; activation = -2.24

---

Below is a list of entries, each paired with its recorded activation value.
Experiment: miR-122 suppressors via Renilla sensor increase, primary screen, cell-based, Huh7 psiCHECK-miR122, Renilla luciferase, single point (AID 623901)
Conditions: 48 h, at 12.5 µM, active compounds read high
About 470 (0.14%) of roughly 340,000 compounds were called active. Shown is part of a subset that was picked to be rich in actives.
Number in %, nothing else.

Use these answered entries as a reference point.
C[C@H](CO)N1C[C@H](C)[C@@H](CN(C)C(=O)C2CCOCC2)Oc2cc(-c3ccc(C(=O)N(C)C)cc3)ccc2S1(=O)=O :: -12.2
COc1cccc(S(=O)(=O)N(C)C[C@@H]2Oc3cc(C4=CCCCC4)ccc3S(=O)(=O)N([C@H](C)CO)C[C@H]2C)c1 :: 36.2
COc1ccccc1-c1ccc2c(c1)O[C@H](CN(C)S(=O)(=O)c1ccc(C)cc1)[C@@H](C)CN([C@H](C)CO)S2(=O)=O :: 2.3

Read the next record carefully.
Data point: CNC[C@H]1Oc2cc(-c3ccc(OC)cc3)ccc2S(=O)(=O)N([C@H](C)CO)C[C@@H]1C ; activation = -1.22

---

Experiment: miR-122 suppressors via Renilla sensor increase, primary screen, cell-based, Huh7 psiCHECK-miR122, Renilla luciferase, single point (AID 623901)
Conditions: 48 h, at 12.5 µM, active compounds read high
Hit rate of the full screen: of about 340,000 compounds, about 470 (0.14%) were called active. The sample holds actives, similar compounds and a random draw of the others, so the mix is not that of the screen.
MEASURED PROPERTY: activation (%)
Number in %, nothing else.

C[C@H](CO)N1C[C@H](C)[C@H](CN(C)CC2CCCCC2)Oc2c(NC(=O)c3cnccn3)cccc2C1=O :: -119
C/C=C/c1ccc2c(c1)O[C@@H](CN(C)C(=O)Cc1ccccn1)[C@@H](C)CN([C@H](C)CO)S2(=O)=O :: -0.361
O=C(CN1CCOCC1)Nc1cc(Cl)ccc1Cl :: -101
C[C@H](O)C#Cc1ccc2c(c1)O[C@H](CN(C)Cc1cncnc1)[C@H](C)CN([C@@H](C)CO)S2(=O)=O :: -0.322

Data point: CC(C)NC(=O)N(C)C[C@@H]1Oc2ncc(C3=CCCCC3)cc2C(=O)N([C@H](C)CO)C[C@@H]1C ; activation = 5.61

---

Assay: miR-122 suppressors via Renilla sensor increase, primary screen, cell-based, Huh7 psiCHECK-miR122, Renilla luciferase, single point (AID 623901)
Conditions: 48 h, at 12.5 µM
Screen size: about 340,000 compounds; about 470 (0.14%) were called active.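 Rule for the calls: active = mean activation of 30% or more, with every replicate also reaching 30%; inconclusive = mean activation of 30% or more but some replicate falls short; inactive = the rest.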 The list comes from a sample in which actives are over-represented; it also holds close analogues and randomly drawn compounds.
Field 'call' accepts active, inactive

Reference set (8 entries):
CNC(=O)C[C@@H]1CC[C@H]2[C@H](COc3ccc(NC(=O)c4cccc(OC)c4)cc3C(=O)N2C)O1 :: active
CCC(=O)N(C)C[C@H]1Oc2ncc(C#Cc3cccnc3)cc2C(=O)N([C@H](C)CO)C[C@H]1C :: inactive
CCC(=O)N1C[C@@H](C)[C@@H](OC)CN(C)C(=O)c2ccc(NC(=O)C3CCCCC3)cc2OC[C@H]1C :: inactive
COc1ccc(S(=O)(=O)Nc2ccc(F)cc2)c(C)c1C :: inactive
O=C1c2ccccc2C2=Nc3ccccc3SC(c3ccccc3F)C12 (centres undefined) :: inactive
C[C@H](CO)N1C[C@H](C)[C@H](CN(C)C(=O)C2CCOCC2)Oc2ncc(C#Cc3ccccc3F)cc2C1=O :: inactive
COc1ccccc1NC(=O)N(C)C[C@@H]1Oc2ncc(C#CCC(C)C)cc2C(=O)N([C@@H](C)CO)C[C@@H]1C :: inactive
CCCC(=O)Nc1ccc2c(c1)C(=O)N(C)C[C@H](OC)[C@@H](C)CN[C@H](C)CO2 :: inactive

Turning to the following compound.
Just curious, what result did CCC(=O)Nc1ccc2c(c1)C(=O)N(C)C[C@@H](OC)[C@@H](C)CN(Cc1ccccc1OC)[C@H](C)CO2 get here?
inactive

---

Assay: miR-122 suppressors via Renilla sensor increase, primary screen, cell-based, Huh7 psiCHECK-miR122, Renilla luciferase, single point (AID 623901);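 note: 0% = median of neutral control wells and 100% = median of positive control wells; higher luciferase signal means stronger suppression of miR-122 activity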
Details: 48 h, at 12.5 µM, active compounds read high
In all, about 340,000 compounds went through this assay and about 470 (0.14%) were called active. Many of the other results were omitted from the sample, so actives are more common in it than they were.
Below is a list of entries, each paired with its recorded activation value.
Number in %, nothing else.

Use these answered entries as a reference point.
COc1ccccc1-c1cnc2c(c1)C(=O)N([C@H](C)CO)C[C@@H](C)[C@@H](CN(C)CC1CCCC1)O2 :: 5.29
Cc1c(-c2ccccc2)cn2c1-c1ccc(C)n1CC2 :: -248

Read the next record carefully.
Data point: C[C@H](CO)N1C[C@H](C)[C@@H](CN(C)CC2CCOCC2)Oc2ncc(C#Cc3ccc(F)cc3)cc2C1=O ; activation = 4.08

---

Assay: miR-122 suppressors via Renilla sensor increase, primary screen, cell-based, Huh7 psiCHECK-miR122, Renilla luciferase, single point (AID 623901);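 note: 0% = median of neutral control wells and 100% = median of positive control wells; higher luciferase signal means stronger suppression of miR-122 activity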
Conditions: 48 h, at 12.5 µM, active compounds read high
Among all 340,000 compounds or so, about 470 (0.14%) were called active. Many of the other results were omitted from the sample, so actives are more common in it than they were.
MEASURED PROPERTY: activation (%)
Number in %, nothing else.

Use these answered entries as a reference point.
CC(C)CC#Cc1cnc2c(c1)C(=O)N([C@H](C)CO)C[C@H](C)[C@H](CN(C)C(=O)Nc1ccccc1F)O2 :: 4.61
C/C=C/c1ccc2c(c1)O[C@H](CN(C)C(=O)Nc1ccc(OC)cc1)[C@@H](C)CN([C@H](C)CO)S2(=O)=O :: -21.8
COc1ccc(F)cc1S(=O)(=O)Nc1ccc2c(c1)OCO2 :: -99.7

Read the next record carefully.
Data point: COc1ccc(C(CCN(Cc2ccc(OC)c(OC)c2)C(=O)CCl)c2ccccc2)cc1 (stereo unspecified) ; activation = 34.7

---

Assay: miR-122 suppressors via Renilla sensor increase, primary screen, cell-based, Huh7 psiCHECK-miR122, Renilla luciferase, single point (AID 623901);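 note: 0% = median of neutral control wells and 100% = median of positive control wells; higher luciferase signal means stronger suppression of miR-122 activity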
Conditions: 48 h, at 12.5 µM, active compounds read high
Hit rate of the full screen: of about 340,000 compounds, about 470 (0.14%) were called active. Shown is part of a subset that was picked to be rich in actives.
Below is a list of entries, each paired with its recorded activation value.
Number in %, nothing else.

Use these answered entries as a reference point.
C[C@@H]1CN([C@@H](C)CO)S(=O)(=O)c2ccc(-c3cccc(C(=O)N(C)C)c3)cc2O[C@@H]1CN(C)C(=O)Nc1ccccc1 :: -16.6
CO[C@H]1CN(C)C(=O)c2cc(NS(=O)(=O)c3ccccc3)ccc2OC[C@H](C)N(C)C[C@@H]1C :: -1.29

Data point: CO[C@@H]1CN(C)C(=O)c2ccc(NC(=O)C3CCC3)cc2OC[C@H](C)NC[C@H]1C ; activation = 1.3

Data point: O=C(Nc1ccc(F)cc1)N1CCCCN2[C@H](CO)[C@H](c3ccc(C#Cc4ccccc4)cc3)[C@H]2C1 ; activation = 34.6

Data point: C[C@@H]1CN([C@@H](C)CO)S(=O)(=O)c2ccc(-c3ccncc3)cc2O[C@@H]1CN(C)C(=O)Nc1ccc(F)cc1 ; activation = -17.3

Data point: CCCC#Cc1cnc2c(c1)C(=O)N([C@H](C)CO)C[C@H](C)[C@@H](CN(C)Cc1ccccc1)O2 ; activation = 2.96

Data point: C/C=C/c1cnc2c(c1)C(=O)N([C@H](C)CO)C[C@H](C)[C@@H](CN(C)CC1CCOCC1)O2 ; activation = 2.95

Data point: Cc1c(C)c(C)c(S(=O)(=O)NCCc2ccccn2)c(C)c1C ; activation = -107

Data point: Cc1ccc(S(=O)(=O)N(C)C[C@H]2Oc3ccc(NC(=O)CCC(F)(F)F)cc3C(=O)N([C@@H](C)CO)C[C@H]2C)cc1 ; activation = -99.9

Data point: COCC(=O)Nc1ccc2c(c1)OC[C@H](C)NC[C@H](C)[C@H](OC)CN(C)C2=O ; activation = -0.878

Data point: CSc1ccc(S(=O)(=O)NC2CCCCC2)cc1 ; activation = -102

Data point: COc1ccc(C#Cc2ccc([C@H]3[C@@H](CO)N4CCCCN(C(=O)Nc5ccccc5)C[C@H]34)cc2)cc1 ; activation = 35.5

Data point: COc1ccc(OC)c(S(=O)(=O)Nc2cccc(-c3ccc4nncn4n3)c2)c1 ; activation = -333

Data point: C[C@@H]1CN([C@@H](C)CO)C(=O)c2cc(/C=C/c3ccccc3)cnc2O[C@H]1CN(C)C(=O)C1CCC1 ; activation = 2.31

Data point: Cc1noc(C)c1NC(=O)N(C)C[C@@H]1Oc2cc(C#CCC(C)C)ccc2S(=O)(=O)N([C@H](C)CO)C[C@@H]1C ; activation = -3.73

Data point: CO[C@H]1CN(C)C(=O)c2cc(NC(C)=O)ccc2OC[C@H](C)N(C(=O)CN(C)C)C[C@@H]1C ; activation = -4.03

Data point: CCCC#Cc1ccc2c(c1)O[C@@H](CN(C)C(=O)CC)[C@@H](C)CN([C@H](C)CO)S2(=O)=O ; activation = -16.6

Data point: O=C(NNC(=O)c1ccccc1O)c1ccccc1O ; activation = -530

Data point: CO[C@H]1CN(C)C(=O)c2ccc(NC(=O)Nc3ccc(F)cc3)cc2OC[C@@H](C)NC[C@H]1C ; activation = -0.877
